Below, each entry is listed with its recorded Kd.
Target: Recombinant human his-tagged IGF R extracellular domain protein (human) (UniProt P08069)
Assay: SPR, Ab captured via anti-huIgG Fc, dissociation at pH 6
// note: answer is a bare numeric in nM

[
  {
    "BINDER": "VRDN-02053 (antibody, V domains shown) VH: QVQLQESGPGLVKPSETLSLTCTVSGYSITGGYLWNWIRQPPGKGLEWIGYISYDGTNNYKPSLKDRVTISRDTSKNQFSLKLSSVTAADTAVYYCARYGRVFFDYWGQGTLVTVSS VL: DIVMTQSPLSLPVTPGEPASISCRSSQSIVHSNGNTYLQWYLQKPGQSPQLLIYKVSNRLYGVPDRFSGSGSGTDFTLKISRVEAEDVGVYYCFQHSHVPWTFGQGTKVEIK",
    "VALUE_KIND": "Kd",
    "READOUT_UNITS": "nM",
    "OBSERVED_VALUE": 3.48
  }
]

Here is another binder to look at.
Query (binder): VRDN-02044 (antibody, V domains shown) VH: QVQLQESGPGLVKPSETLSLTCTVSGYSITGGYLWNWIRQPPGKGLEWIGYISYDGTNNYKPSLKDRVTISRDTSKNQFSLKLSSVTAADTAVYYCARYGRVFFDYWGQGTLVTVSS VL: DIVMTQSPLSLPVTPGEPASISCRSSQSIVHSNGNTYLQWYLQKPGQSPQLLIYHVSNRLYGVPDRFSGSGSGTDFTLKISRVEAEDVGVYYCFQGSHVPWTFGQGTKVEIK ; field requested: Kd
0.759
